Target: T1, Dimeric Mouse Ang-2FD conjugated to human IgG1 (mouse (Mus musculus); human)
T1 construct: also called Mouse Ang-2FD-hFc
T1 sequence (chain, as listed by the source limits assumed): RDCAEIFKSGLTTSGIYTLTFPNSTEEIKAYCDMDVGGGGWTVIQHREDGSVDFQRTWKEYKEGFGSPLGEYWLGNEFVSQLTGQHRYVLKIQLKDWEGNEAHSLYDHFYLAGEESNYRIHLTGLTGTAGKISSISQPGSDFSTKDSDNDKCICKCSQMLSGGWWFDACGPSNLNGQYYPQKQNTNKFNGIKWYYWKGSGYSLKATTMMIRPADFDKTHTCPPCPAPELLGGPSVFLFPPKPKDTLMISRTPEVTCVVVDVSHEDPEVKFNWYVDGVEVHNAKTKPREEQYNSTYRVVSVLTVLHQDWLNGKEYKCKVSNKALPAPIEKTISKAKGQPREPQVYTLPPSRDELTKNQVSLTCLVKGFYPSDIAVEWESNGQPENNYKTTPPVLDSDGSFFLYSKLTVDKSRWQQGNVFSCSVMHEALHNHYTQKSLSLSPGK
Assay: SPR, captured Ab, RT
Measured T1/2, listed per entry.
// return numeric value only (unit: h, not printed)

binder	T1/2 / h
H2M743N (antibody, V domains shown) VH: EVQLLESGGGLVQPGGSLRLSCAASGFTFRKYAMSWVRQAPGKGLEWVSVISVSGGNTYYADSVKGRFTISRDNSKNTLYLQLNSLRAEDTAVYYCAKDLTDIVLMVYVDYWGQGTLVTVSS VL: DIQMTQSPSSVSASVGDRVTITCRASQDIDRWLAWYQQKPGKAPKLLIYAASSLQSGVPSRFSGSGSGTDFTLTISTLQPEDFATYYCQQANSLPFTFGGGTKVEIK	3.25

Attention now turns to another entry.
Prompt: Requested read-out: T1/2. Entry: H1H730N (antibody, V domains shown) VH: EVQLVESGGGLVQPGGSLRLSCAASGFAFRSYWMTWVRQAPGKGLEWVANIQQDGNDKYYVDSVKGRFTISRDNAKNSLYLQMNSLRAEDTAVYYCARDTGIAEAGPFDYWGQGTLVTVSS VL: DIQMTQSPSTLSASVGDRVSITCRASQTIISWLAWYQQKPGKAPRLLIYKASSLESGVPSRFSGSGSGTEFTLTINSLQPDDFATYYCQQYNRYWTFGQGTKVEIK
Completion: 1.5

Data provenance: patent US20140112930A1
